Origin of the recorded values: ChEMBL document CHEMBL1201862

System: HOP-92
Method: NCI tumour cell line growth inhibition, 48 h
Active and inactive are the calls of the source. No stated cut-off is given here; in the data, active = GI50 up to about 1.1 µM and inactive = higher.
Output constraint: value belongs to active, inactive

Use the examples below as a reference point.
CCN(CC)c1ccc2cc(C(N)=S)c(=N)oc2c1	inactive
N#C/C(=C\c1c[nH]c2ccccc12)C(=O)c1ccc(O)c(O)c1	inactive
O=S(=O)(Nc1nc2ccccc2nc1N1CCCCCC1)c1ccccc1	inactive
O=C(O)Cc1c[nH]c2ccc(F)cc12	inactive
O=C1NC(S(=O)(=O)O)=NNC12c1ccccc1-c1ccccc12	inactive
CC(=O)OC12CC(C)C3(O)C4C=C(C)C(=O)[C@@]4(O)CC(CO)=C[C@H]3C1C2(C)C (some centres undefined)	inactive

// outcome(item) with item = COc1ccc(-c2nc(N)c3ncn(C4OC(CO)C(O)C4O)c3n2)cc1 (centres undefined)
inactive

// outcome(item) with item = O=C(c1cc2ccccc2[nH]1)N1C2CCC1CN(CCOC(c1ccc(F)cc1)c1ccc(F)cc1)CC2 (centres undefined)
inactive

// outcome(item) with item = "NC(=S)NN=Cc1ccccc1OCc1cccc(COc2ccccc2C=NNC(N)=S)n1"
inactive
